# Experiment description: Ex vivo biodistribution in Daudi xenograft-bearing mice
# Condition label: male, NOD.Cg-Rag1tm1Mom Il2rgtm1Wjl/SzJ (NRG), mouse, intestine, iv, total radioactivity, Intestine uptake, 1 h p.i. blocked with LY2510924, mean
Where a SMILES comes first, the peptide text is derived from it. Side-chain parts run from the residue outwards. [ ]: non-standard residue; d: D form. The star is where a group is joined. DOTA = O=C(O)CN1CCN(CC(=O)O)CCN(CC(=O)*)CCN(CC(=O)O)CC1; 2Nal = N[C@@H](Cc1ccc2ccccc2c1)C(=O)O; dNMeOrn = CN[C@H](CCCN)C(=O)O; 4Amb = NCc1ccc(C(=O)O)cc1
Assay endpoint: tissue uptake at 1 h (%ID/g)
One number for each entry, in %ID/g.

Any idea what tissue uptake at 1 h was measured for CN1C(=O)[C@@H](Cc2ccc(O)cc2)NC(=O)CNC(=O)[C@H](Cc2ccc3ccccc3c2)NC(=O)[C@H](CCCNC(=N)N)NC(=O)[C@H]1CCCNC(=O)c1ccc(CNC(=O)CN2CCN(CC(=O)O)CCN(CC(=O)O)CCN(CC(=O)O)CC2)cc1 [[68Ga]Ga-Pentixafor, metal not drawn] (cyclo([dY][dNMeOrn]([4Amb-DOTA])R[2Nal]G)) ? 0.59
